Test system: Bacteroides fragilis
assay.overview: In vitro antimicrobial activity against Bacteroides fragilis ATCC 25285
Assay type: functional
readout.type: MIC (µg/mL)
Quick note: give the figure in µg/mL, leave out the unit.

Inquiry: Quick one: MIC for COC(=O)c1cc2cc3c(c(O)c2c(=O)o1)OC1(CC2=C(O1)C(=O)c1c(O)c(NCCNC(=O)OC(C)(C)C)cc(O)c1C2=O)CC3O (stereo unspecified) ?
Reply text: 0.5

Inquiry: Quick one: MIC for COC(=O)c1cc2cc3c(c(O)c2c(=O)o1)OC1(Cc2c(O)c4c(c(O)c2O1)C(=O)C(OC)=CC4=O)CC3O (stereo unspecified) ?
Reply text: 0.25

Inquiry: Quick one: MIC for COC(=O)c1cc2cc3c(c(O)c2c(=O)o1)OC1(CC2=C(O1)C(=O)c1c(O)c(N)cc(O)c1C2=O)CC3O (stereo unspecified) ?
Reply text: 0.06

Inquiry: Quick one: MIC for COC(=O)c1cc2cc3c(c(O)c2c(=O)o1)OC1(CC2=C(O1)C(=O)c1c(O)c(NCC#N)cc(O)c1C2=O)CC3O (stereo unspecified) ?
Reply text: 0.5

Inquiry: Quick one: MIC for CCNc1cc(O)c2c(c1O)C(=O)C1=C(CC3(CC(O)c4cc5cc(C(=O)OC)oc(=O)c5c(O)c4O3)O1)C2=O (stereo unspecified) ?
Reply text: 0.06

Inquiry: Quick one: MIC for COC(=O)c1cc2cc3c(c(O)c2c(=O)o1)OC1(CC2=C(O1)C(=O)c1c(O)c(NCCN(C)C)cc(O)c1C2=O)CC3O (stereo unspecified) ?
Reply text: 0.5

Inquiry: Quick one: MIC for COC(=O)c1cc2cc3c(c(O)c2c(=O)o1)OC1(CC2=C(O1)C(=O)c1c(O)c(NCC(F)(F)F)cc(O)c1C2=O)CC3O (stereo unspecified) ?
Reply text: 0.06
